molecular target: mature GDF8 (UniProt O14793 267-375); assay: BIAcore
Sequence (O14793 267-375): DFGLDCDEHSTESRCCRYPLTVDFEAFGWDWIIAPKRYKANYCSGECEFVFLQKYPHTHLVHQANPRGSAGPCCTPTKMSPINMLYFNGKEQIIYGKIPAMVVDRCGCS
Give measured Kd for each item. Keep answers brief.
Output spec: scalar in nM, unitless text.

Q) I have this binder here, 1-257-1 (antibody, V domains shown) VH: EVQLVESGGGLVKPGGSLRLSCAASGFTFSSYSMNWVRQAPGKGLEWVSSISSSSSYIYYADSVKGRFTISRDNAKNSLYLQMNSLRAEDTAVYYCARDRGYYYGMDVWGQGTTVTVSS VL: DIQMTQSPSSLSASVGDRVTLTCRASQGIRNALGWYQQKPGKAPKRLIYGASSLQSGVPSRFSGSGSGTEFTLTISSLQPEDFATYYCLQHNSYPFTFGPGTKVDIKR , and I need its recorded Kd.
A) 0.16

Q) Could you do the same for 1-268-1 (antibody, V domains shown) VH: EVQLVESGGGLVKPGGSLRLSCAASGFTFSSYSMNWVRQAPGKGLEWVSSISSSSSYIYYADSVKGRFTISRDNAKNSLYLQMNSLRAEDTAVYYCARDRGSYFLFDYWGQGTLVTVSS VL: DMQMTQSPSSLSASVGDRVTITCRASQGIRNDLGWYQQKPGKAPKRLIYGASSLQSGVPSRFSGSGSGTEFTLTISSLQPEDSATYYCLQHNSYPLTFGGGTKVEIKR , please?
A) 0.24

Sourced from patent US20060263354A1
